assay: 384-well plate pilot, post-Golgi transport modulator project, inhibition of yeast transport mutant growth (AID 636); conditions: absorbance 615 nm, about 18 h, stronger effect = higher value; further: test concentration not given here
recorded.metric: inhibition (%)
Write it as a number; the unit % goes unstated.

Below: 3 compounds and their reported inhibition.
compound	inhibition [%]
CCc1nnc2n1N=C(c1ccc(-c3ccc(Cl)cc3Cl)o1)CS2	-2.99
CCOC(=O)CNS(=O)(=O)c1c(C)noc1C	-4.47
CCC(CC)C(=O)Nc1cccc(C(=O)NCc2ccco2)c1	-3.24

-- ask Read the entry CCn1c(=S)ccc2ccc(OC)cc21 and write its reported inhibition.
-- reply -5.14

-- ask Read the entry Cc1ccc(OCC(=O)NCCN2CCCC2)cc1 and write its reported inhibition.
-- reply -6.8

-- ask Read the entry COc1ccc(C2C(C#N)=C(N)OC3=C2C(=O)CC(C)C3)c(OC)c1OC (configuration not stated) and write its reported inhibition.
-- reply 2.86
